Tested on: Human immunodeficiency virus
run-description: Inhibition of HIV reverse transcriptase activity at 100 ug/ml incubated at 37 degC for 1 hr by ELISA RT assay
Assign class by inhibition: not lower than 30% means class 1; lower than 30% means class 0.

{"compound": "COc1cc(/C=C/C(=O)C2=C(/C=C/c3cc(OC)c(OC)c(OC)c3)N=C3SC=C(C)N3C2c2ccccc2)cc(OC)c1OC (stereo unspecified)", "classification": "class 1"}
{"compound": "CC1=CSC2=NC(/C=C/c3ccc(Cl)cc3)=C(C(=O)/C=C/c3ccc(Cl)cc3)C(c3ccc(Cl)cc3)N12 (stereo unspecified)", "classification": "class 0"}
{"compound": "COc1cc(/C=C\\C2=C(C(=O)/C=C/c3cc(OC)c(OC)c(OC)c3)C(c3cc(OC)c(OC)c(OC)c3)N3C(C)=CSC3=N2)cc(OC)c1OC (stereo unspecified)", "classification": "class 1"}
{"compound": "COc1ccc(/C=C/C(=O)C2=C(/C=C/c3ccc(OC)cc3)N=C3SC=C(C)N3C2c2ccccc2)cc1 (stereo unspecified)", "classification": "class 1"}
{"compound": "CC1=CSC2=NC(/C=C/c3ccc(Cl)cc3)=C(C(=O)/C=C/c3ccc(Cl)cc3)C(c3ccccc3)N12 (stereo unspecified)", "classification": "class 1"}
